Tested on: 520L (Melanoma)
Experiment: In vitro cytotoxic activity, 36 tumor cell lines panel
Format: cell-based
Settings: 96 hours
parameter-measured: pIC50
In textbook form, pIC50 equals minus log to base ten of the concentration in mol/L.

Measured pIC50 (520L (Melanoma)), entry CCC(C)c1cc2c(=O)c3ccc4c(OC)c5c(=O)c6c(O)ccc(O)c6c(=O)c5c(O)c4c3c(=O)c2c(=O)n1CC(=O)N1CC(C(=O)O)NC(=O)C1C (stereo not shown) : 5.14

====

Assay: In vivo pharmacokinetic profile (plasma levels)
Design: species or system CD-1 mice
Details: CD-1, mouse, ip, 25 mg/kg single dose, CD1 female mice
Procedure: Pharmacokinetic profile of Compound 1 was determined in CD-1 mice (FIG. 1). CD1 female mice (6 weeks of age) received a single intravenous or intraperitoneal dose of Compound 1 (25 mg/kg; 5 mL/kg) in […]/4.5% Glycocholate/5% EtOH formulation. Blood was collected into EDTA-containing tubes by cardiac puncture. Quantification of Compound 1 plasma levels was done by high performance liquid chromatographic-mass spectrometric method. […]
parameter-measured: Cmax (µg/mL)
Please reply with the bare figure in µg/mL and do not write the unit itself.

Quick note, Cmax for CCC(C)c1cc2c(=O)c3ccc4c(OC)c5c(=O)c6c(O)ccc(O)c6c(=O)c5c(O)c4c3c(=O)c2c(=O)n1CC(=O)N1CC(C(=O)O)NC(=O)C1C (stereo not shown) landed at 111

====

System: 529L (Lung)
Experiment: In vitro cytotoxic activity, 36 tumor cell lines panel
Format: cell-based
Settings: 96 hours
parameter-measured: IC50 (µM)
Please reply with the bare figure in µM and do not write the unit itself.

Quick note, IC50 for CCC(C)c1cc2c(=O)c3ccc4c(OC)c5c(=O)c6c(O)ccc(O)c6c(=O)c5c(O)c4c3c(=O)c2c(=O)n1CC(=O)N1CC(C(=O)O)NC(=O)C1C (stereo not shown) [Compound 1] landed at 2.2

====

Tested on: 944L (Renal)
Assay: In vitro cytotoxic activity, 36 tumor cell lines panel
Type: cell-based
Conditions: 96 hours
parameter-measured: pIC50
In textbook form, pIC50 equals minus log to base ten of the concentration in mol/L.

Quick note, pIC50 for CCC(C)c1cc2c(=O)c3ccc4c(OC)c5c(=O)c6c(O)ccc(O)c6c(=O)c5c(O)c4c3c(=O)c2c(=O)n1CC(=O)N1CC(C(=O)O)NC(=O)C1C (stereo not shown) landed at 4.83

====

Test system: 629L (Lung)
Assay: In vitro cytotoxic activity, 36 tumor cell lines panel
Assay type: cell-based
Conditions: 96 hours
parameter-measured: IC50

Quick note, IC50 for CCC(C)c1cc2c(=O)c3ccc4c(OC)c5c(=O)c6c(O)ccc(O)c6c(=O)c5c(O)c4c3c(=O)c2c(=O)n1CC(=O)N1CC(C(=O)O)NC(=O)C1C (stereo not shown) landed at 11.9 µM

====

Assay: In vivo pharmacokinetic profile (plasma levels)
Design: species or system CD-1 mice
Conditions: CD-1, mouse, iv, 25 mg/kg single dose, CD1 female mice
parameter-measured: AUC

Quick note, AUC for CCC(C)c1cc2c(=O)c3ccc4c(OC)c5c(=O)c6c(O)ccc(O)c6c(=O)c5c(O)c4c3c(=O)c2c(=O)n1CC(=O)N1CC(C(=O)O)NC(=O)C1C (stereo not shown) landed at 1180 µg·h/mL

====

Assay: In vivo pharmacokinetic profile (plasma levels)
Design: species or system CD-1 mice
Conditions: CD-1, mouse, iv, 25 mg/kg single dose, CD1 female mice
parameter-measured: Cmax (µg/mL)
Please reply with the bare figure in µg/mL and do not write the unit itself.

Quick note, Cmax for CCC(C)c1cc2c(=O)c3ccc4c(OC)c5c(=O)c6c(O)ccc(O)c6c(=O)c5c(O)c4c3c(=O)c2c(=O)n1CC(=O)N1CC(C(=O)O)NC(=O)C1C (stereo not shown) landed at 227

====

System: 276L (Melanoma)
Assay: In vitro cytotoxic activity, 36 tumor cell lines panel
Format: cell-based
Conditions: 96 hours
parameter-measured: pIC50
In textbook form, pIC50 equals minus log to base ten of the concentration in mol/L.

Quick note, pIC50 for CCC(C)c1cc2c(=O)c3ccc4c(OC)c5c(=O)c6c(O)ccc(O)c6c(=O)c5c(O)c4c3c(=O)c2c(=O)n1CC(=O)N1CC(C(=O)O)NC(=O)C1C (stereo not shown) landed at 5.08

====

Assay: In vivo toxicity: single-dose maximum tolerated dose in CD1 mice
Conditions: mouse, other: i.v. or i.p. (intravenous or intraperitoneal), single-dose via i.v. or i.p. routes, 1% SDS formulation
parameter-measured: MTD

Quick note, MTD for CCC(C)c1cc2c(=O)c3ccc4c(OC)c5c(=O)c6c(O)ccc(O)c6c(=O)c5c(O)c4c3c(=O)c2c(=O)n1CC(=O)N1CC(C(=O)O)NC(=O)C1C (stereo not shown) landed at ≥ 5 mg/kg

====

Assay: Acute toxicity in CD-1 nu/nu mice
Type: in vivo
Settings: CD-1 nu/nu, mouse, in vivo, iv; 6% Tween/4.5% Glycocholate/5% EtOH formulation
parameter-measured: MTD (mg/kg)
Please reply with the bare figure in mg/kg and do not write the unit itself.

Quick note, MTD for CCC(C)c1cc2c(=O)c3ccc4c(OC)c5c(=O)c6c(O)ccc(O)c6c(=O)c5c(O)c4c3c(=O)c2c(=O)n1CC(=O)N1CC(C(=O)O)NC(=O)C1C (stereo not shown) [Compound 1] landed at 25

====

Test: In vivo pharmacokinetic profile (plasma levels)
Set-up: species or system CD-1 mice
Conditions: CD-1, mouse, ip, 25 mg/kg single dose, CD1 female mice
parameter-measured: AUC (µg·h/mL)
Please reply with the bare figure in µg·h/mL and do not write the unit itself.

Quick note, AUC for CCC(C)c1cc2c(=O)c3ccc4c(OC)c5c(=O)c6c(O)ccc(O)c6c(=O)c5c(O)c4c3c(=O)c2c(=O)n1CC(=O)N1CC(C(=O)O)NC(=O)C1C (stereo not shown) landed at 649

====

Tested on: 393NL (Renal)
Test: In vitro cytotoxic activity, 36 tumor cell lines panel
Type: cell-based
Details: 96 hours
parameter-measured: IC50

Quick note, IC50 for CCC(C)c1cc2c(=O)c3ccc4c(OC)c5c(=O)c6c(O)ccc(O)c6c(=O)c5c(O)c4c3c(=O)c2c(=O)n1CC(=O)N1CC(C(=O)O)NC(=O)C1C (stereo not shown) landed at 9.08 µM
